molecular target: T1, revertant virus (AD169 CMV with the pentameric gH complex restored); experiment: antibody-titration EIA, coated revertant virions
T1 construct: also called revertant virion; revertant virions
Consider the following binders; for each one, report its EC50.
Numbers only, in µg/mL.

Record excerpt, results attached:
[[record]]
binder = "347.3 (antibody, V domains shown, rabbit hybridoma mAb; also called clone 347.3) VH: QSLEESEGRLVTPGTPLTLTCTVSGIDLSTYAMNWVRQAPGKGLEWIGIIGSSGGAYYASWAKGRCTISKTSTTVDLKITSPTTEDTATYFCAVSLYTYDDYADYFLWGPGTLVTISS VL: ELVLTQSPSLSASLGTTARLTCTLSTGYSVGKYPLVWLQQVPGRPPRYLLTYHTEEFKHQGSGVHSRFSGSKDTSENSFVLRIFGLQPEDEADYYCVTAHPTESSLHYVFGGGTQLTVT"
property_measured = "EC50"
reported_measurement = 0.34

[[record]]
binder = "124.4 (antibody, V domains shown, rabbit hybridoma mAb; also called clone 124.4) VH: QSLEESGGRLVTPGTPLTLTCTVSGFSLSSCNMGWVRQAPGEGLEWIGYIAASGDAFYASWAKGRFTISKTSSTTVDLRITSPTTEDTAAYFCARGSYAAYNAWDLWGPGTLVTVSS VL: ELDMTQTASPVSAAVGGTVTINCQSSQSVYNKNYLSWYQQKPGQPPKLLIYGASTLPSGVPSRFKGSGSGTQFTLTISEVQCDDAATYYCQGYYSGYIYAFGGGTEVVVK"
property_measured = "EC50"
reported_measurement = 1.72


Next binder, EC50 to be filled in.
Problem: Report EC50 for 223.4 (antibody, V domains shown, rabbit hybridoma mAb; also called clone 223.4) VH: QSLEESGGRLVTPGTPLTLTCTVSGFSLSAYSVSWVRQAPGKGLEWIGIIGHSGNTYYANWAKGRFTISKTSTTVDLKITSLTIEDTATYFCAREDYRYGDYGYYWDFNFWGPGTLVTISS VL: ELVMTQTPSPVSAPVGGTVTISCQASRSVYNENYVAWFQHRPGQPPKLLIYTTSILASGVPSRFKGRGSGTQFTLTISDVQCDDAATYYCAGDYDDNEENAFGGGTELEIL
Solution: 1.54
